Sourced from ChEMBL document CHEMBL4251616

Answer each item with its documented EC50.
# Method Notes: Cytotoxicity against mouse KCKO cells after 48 hrs by MTT assay
# Assay type: functional, cell-based
# output: bare number, implied unit µM

Input: Sample `COc1cc2c(cc1OC)CN(CCCCn1ccc3ccccc31)CC2` — what was its EC50?
Output: 77

Input: Now consider `c1ccc2c(c1)ccn2CCCCN1CCN(C2CCCCC2)CC1` and answer again.
Output: 67

---

# Tested on: ASPC1
# Method Notes: Cytotoxicity against human AsPC1 cells after 48 hrs by MTT assay
# Assay type: functional, cell-based
# Stated Conditions: ASPC1, 48 h
Measure Name: EC50

Input: Fill blank: measured EC50 of the molecule `c1ccc2c(c1)ccn2CCCCN1CCN(C2CCCCC2)CC1` is ____.
Output: > 100 µM

Input: And `COc1cc2c(cc1OC)CN(CCCCn1ccc3ccccc31)CC2` ?
Output: > 100 µM

---

Kindly supply the reported pEC50 values for the records listed here.
# Tested System: ATP-dependent translocase ABCB1 (Homo sapiens)
# Sequence (P08183 whole entry): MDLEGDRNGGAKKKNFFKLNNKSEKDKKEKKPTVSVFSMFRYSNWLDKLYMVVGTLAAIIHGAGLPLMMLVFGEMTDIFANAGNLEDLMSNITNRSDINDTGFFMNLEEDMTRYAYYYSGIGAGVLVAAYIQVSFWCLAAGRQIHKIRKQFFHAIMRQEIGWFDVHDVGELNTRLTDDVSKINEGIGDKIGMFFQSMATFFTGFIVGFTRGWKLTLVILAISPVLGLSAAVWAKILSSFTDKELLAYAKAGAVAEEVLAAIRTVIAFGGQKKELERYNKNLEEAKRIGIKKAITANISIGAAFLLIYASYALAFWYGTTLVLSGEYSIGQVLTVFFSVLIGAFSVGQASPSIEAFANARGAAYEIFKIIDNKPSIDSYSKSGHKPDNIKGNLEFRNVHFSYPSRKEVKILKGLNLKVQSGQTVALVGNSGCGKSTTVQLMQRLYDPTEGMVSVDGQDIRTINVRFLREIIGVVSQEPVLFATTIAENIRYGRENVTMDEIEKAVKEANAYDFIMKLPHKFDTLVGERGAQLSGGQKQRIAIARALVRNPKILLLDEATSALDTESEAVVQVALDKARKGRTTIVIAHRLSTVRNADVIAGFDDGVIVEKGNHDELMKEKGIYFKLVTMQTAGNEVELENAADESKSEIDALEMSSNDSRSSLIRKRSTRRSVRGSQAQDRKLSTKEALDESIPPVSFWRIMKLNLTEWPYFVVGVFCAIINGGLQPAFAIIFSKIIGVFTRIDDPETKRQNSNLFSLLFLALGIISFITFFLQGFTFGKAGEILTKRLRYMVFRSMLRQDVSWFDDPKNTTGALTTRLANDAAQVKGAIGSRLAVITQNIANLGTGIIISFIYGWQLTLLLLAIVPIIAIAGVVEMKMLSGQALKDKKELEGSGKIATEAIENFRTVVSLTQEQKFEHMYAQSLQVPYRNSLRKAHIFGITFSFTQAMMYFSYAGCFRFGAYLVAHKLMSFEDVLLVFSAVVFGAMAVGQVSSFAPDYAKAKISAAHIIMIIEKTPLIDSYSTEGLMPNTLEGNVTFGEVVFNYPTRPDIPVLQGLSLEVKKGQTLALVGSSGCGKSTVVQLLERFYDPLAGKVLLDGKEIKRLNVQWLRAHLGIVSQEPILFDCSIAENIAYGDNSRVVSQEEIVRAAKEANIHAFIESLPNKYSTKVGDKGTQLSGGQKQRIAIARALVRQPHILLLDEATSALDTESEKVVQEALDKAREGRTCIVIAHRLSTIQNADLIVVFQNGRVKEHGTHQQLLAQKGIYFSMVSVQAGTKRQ
# Method Notes: Inhibition of human MDR1 expressed in MDCK-MDR1 cells assessed as calcein cell accumulation after 30 mins by spectrofluorimetry
Recall that pEC50 is obtained by taking minus log10 of the concentration measured in molar.

Input: Name the reported pEC50 value associated with the molecule `COc1cc2c(cc1OC)CN(CCCCn1ccc3ccccc31)CC2`
Output: 5.22

Input: For `c1ccc2c(c1)ccn2CCCCN1CCN(C2CCCCC2)CC1` then?
Output: 6.34
